Test system: A549
Assay: Inhibition of cell viability (MTS), A549 (negative control line)
Assay type: cell-based
Conditions: Homo sapiens, A549, 96 h, A549 cells (negative control), 96 hours incubation
pEC50: −log10 of the molar value.
TEST_READOUT: pEC50

Solved cases below.
[
  {
    "COMPOUND": "Cc1csc(-c2ccc3nnc(C(C)c4ccc5nc(NC(=O)C6CC6)cn5n4)n3c2)c1 (stereo not shown)",
    "TARGET_SYSTEM": "A549",
    "pEC50": "5.10 to 5.30"
  },
  {
    "COMPOUND": "N#Cc1ccc(-c2ccc3nnc(C(F)(F)c4ccc5nc(NC(=O)C6CC6)cn5n4)n3c2)cc1",
    "TARGET_SYSTEM": "A549",
    "pEC50": "< 4.30"
  },
  {
    "COMPOUND": "O=C(Nc1cn2nc(Sc3nnc4ccc(C#CCO)cn34)ccc2n1)C1CC1",
    "TARGET_SYSTEM": "A549",
    "pEC50": "< 4.30"
  }
]

Suppose we examine the compound Cc1ccc2nnc(C(C)c3ccc4nc(NC(=O)C5CC5)cn4n3)n2c1 (stereo not shown) ; what pEC50 value has been reported? < 4.30

Given the entry Cc1csc(-c2ccc3nnc(C(F)(F)c4ccc5nc(NC(=O)C6CC6)cn5n4)n3c2)c1 , report its measured pEC50. < 4.30

Find the recorded pEC50 belonging to O=C(Nc1cn2nc(Sc3nnc4ccc(Cl)cn34)ccc2n1)C1CC1 and report it. 4.60 to 5.10

Any idea what its pEC50 is? The compound is CN(C)c1cccc(-c2ccc3nnc(C(F)(F)c4ccc5nc(NC(=O)C6CC6)cn5n4)n3c2)c1 4.60 to 5.10

Consider the compound Cc1cc(F)cc(-c2ccc3nnc(C(F)(F)c4ccc5nc(NC(=O)C6CC6)cn5n4)n3c2)c1 and give its measured pEC50. < 4.30

Given the compound CCOc1ccc(-c2ccc3nnc(C(C)c4ccc5nc(NC(=O)C6CC6)cn5n4)n3c2)cc1 (stereo not shown) , what is its reported pEC50? < 4.30

Given NC(=O)c1cccc(-c2ccc3nnc(C(F)(F)c4ccc5nc(NC(=O)C6CC6)cn5n4)n3c2)c1 , state its recorded pEC50. < 4.30

For O=C(Nc1cn2nc(C(F)(F)c3nnc4ccc(-c5cccc(F)c5)cn34)ccc2n1)C1CC1 , what is its reported pEC50? < 4.30
